measurementTarget: PPAR α (Homo sapiens, UniProt Q07869)
Construct: human PPAR 167–468 (PPAR)
Sequence (Q07869 167-468): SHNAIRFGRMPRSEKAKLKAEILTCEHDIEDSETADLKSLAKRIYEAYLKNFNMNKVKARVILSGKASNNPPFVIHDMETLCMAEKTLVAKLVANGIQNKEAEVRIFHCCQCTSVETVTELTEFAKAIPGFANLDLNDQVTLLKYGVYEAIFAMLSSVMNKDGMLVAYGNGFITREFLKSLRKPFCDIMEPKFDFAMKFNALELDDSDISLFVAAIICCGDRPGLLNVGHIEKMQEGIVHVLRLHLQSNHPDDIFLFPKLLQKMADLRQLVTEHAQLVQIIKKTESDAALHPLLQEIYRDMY
assayMethodText: Measurement of transcriptional activity, GAL4-PPAR LBD chimera / PLAP reporter in CV-1 cells
recordedConditions: PLAP activity secreted 24 hours after addition of the compound, read-out: Transcriptional activities EC50 PPAR α
readoutLabel: EC50 (nM)

I. COc1ccc(CC(OC(C)C)C(=O)O)c(OC)c1CNC(=O)c1ccc(OC2CCCC2)cc1Cl (stereo not drawn)
II. CC(C)OC(Cc1cc(CNC(=O)c2ccc(C(F)(F)F)cc2F)c2occc2c1)C(=O)O (stereo not drawn)
III. CC(C)Oc1ccc(C(=O)NCc2cc(CC(OC(C)C)C(=O)O)cc3c2OCC3)c(Cl)c1 (stereo not drawn)
Exam item: Quick one: which order do the items above go in by EC50, smallest to largest? In your reply, arrange the labels in the requested order.
Marked response: I, III, II

----------
measurementTarget: PPAR γ (Homo sapiens)
Construct: 174–475 (PPAR) amino acid regions
Sequence (P37231 174-475 isoform P37231-2): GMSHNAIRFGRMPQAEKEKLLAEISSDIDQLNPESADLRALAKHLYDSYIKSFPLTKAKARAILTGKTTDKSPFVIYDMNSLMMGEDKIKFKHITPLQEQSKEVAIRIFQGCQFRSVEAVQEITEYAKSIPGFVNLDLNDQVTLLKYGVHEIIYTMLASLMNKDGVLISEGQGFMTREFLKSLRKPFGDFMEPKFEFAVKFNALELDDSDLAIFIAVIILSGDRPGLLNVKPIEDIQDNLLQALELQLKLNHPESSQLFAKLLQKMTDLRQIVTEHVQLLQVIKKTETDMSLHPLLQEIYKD
assayMethodText: Measurement of transcriptional activity, GAL4-PPAR LBD chimera / PLAP reporter in CV-1 cells
recordedConditions: PLAP activity secreted 24 hours after addition of the compound, read-out: Transcriptional activities EC50 PPAR γ
pEC50: −log10 of the molar value.
readoutLabel: pEC50

COc1ccc(CC(OC(C)C)C(=O)O)c(OC)c1CNC(=O)c1ccc(OC2CCCC2)cc1Cl (stereo not drawn) : 8.24

A. CC(C)OC(Cc1cc(CNC(=O)c2ccc(C(F)(F)F)cc2F)c2occc2c1)C(=O)O (stereo not drawn)
B. CC(C)Oc1ccc(C(=O)NCc2cc(CC(OC(C)C)C(=O)O)cc3c2OCC3)c(Cl)c1 (stereo not drawn)
Exam item: Which record would sort first by descending pEC50, A or B ? Returns: label corresponding to the selected item.
Marked response: B
